src = PubChem BioAssay AID493160

biological target: Hexokinase HKDC1 (Homo sapiens) (UniProt Q2TB90); test: HKDC1 hexokinase inhibitors, primary screen, biochemical, fluorescence, uHTS (AID 493160); conditions: recombinant HKDC1, G6PDH/diaphorase resazurin coupled fluorescence; at 20 µM;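 further: plate controls were DMSO wells with enzyme for no effect and DMSO wells lacking enzyme for full effect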
Sequence (Q2TB90 whole entry, looked up): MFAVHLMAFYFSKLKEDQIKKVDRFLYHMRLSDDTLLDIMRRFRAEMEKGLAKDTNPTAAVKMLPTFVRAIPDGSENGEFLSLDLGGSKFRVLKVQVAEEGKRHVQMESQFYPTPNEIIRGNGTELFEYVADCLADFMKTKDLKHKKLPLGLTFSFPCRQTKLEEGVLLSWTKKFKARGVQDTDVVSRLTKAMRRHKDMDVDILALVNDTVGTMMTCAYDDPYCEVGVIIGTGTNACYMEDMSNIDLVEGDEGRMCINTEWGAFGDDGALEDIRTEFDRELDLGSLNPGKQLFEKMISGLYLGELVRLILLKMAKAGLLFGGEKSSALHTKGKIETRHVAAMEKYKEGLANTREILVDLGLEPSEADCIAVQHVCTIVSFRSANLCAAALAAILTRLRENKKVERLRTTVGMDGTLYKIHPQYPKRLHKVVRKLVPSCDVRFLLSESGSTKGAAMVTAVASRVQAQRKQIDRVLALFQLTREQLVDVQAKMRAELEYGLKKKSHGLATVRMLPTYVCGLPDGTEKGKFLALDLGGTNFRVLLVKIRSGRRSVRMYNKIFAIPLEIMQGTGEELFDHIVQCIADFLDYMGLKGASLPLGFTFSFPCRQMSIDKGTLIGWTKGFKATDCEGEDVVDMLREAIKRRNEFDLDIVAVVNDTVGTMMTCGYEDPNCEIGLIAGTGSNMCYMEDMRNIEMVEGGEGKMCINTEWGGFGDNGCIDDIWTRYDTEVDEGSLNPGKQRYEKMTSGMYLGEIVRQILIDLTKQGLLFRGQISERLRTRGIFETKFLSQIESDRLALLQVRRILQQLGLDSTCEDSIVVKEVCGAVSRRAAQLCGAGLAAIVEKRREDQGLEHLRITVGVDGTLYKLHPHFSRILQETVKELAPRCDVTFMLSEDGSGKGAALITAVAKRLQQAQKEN
Hit rate of the full screen: of about 340,000 compounds, about 540 (0.16%) were called active.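 How the source made its calls: active means inhibition above about 35% when tested at 20 µM (limit read from the data); inactive means the rest.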 The list comes from a sample in which actives are over-represented; it also holds close analogues and randomly drawn compounds.
// one of 1 for active, 0 for inactive, no free text

Assay result, entry CC(=O)c1c(C)[nH]c(C(=O)COC(=O)c2cccc(S(=O)(=O)N(C)c3ccccc3)c2)c1C — outcome? 0

Assay result, entry O=C(/C=C/c1cccc(C(F)(F)F)c1)N1CCN(c2ccccn2)CC1 — outcome? 0

Assay result, entry COc1ccc(N(CC(=O)N/N=C/c2cccc3c2OCCO3)S(=O)(=O)c2ccc(NC(C)=O)cc2)cc1 — outcome? 1

Assay result, entry CCOC(=O)/C(=C\c1ccc([N+](=O)[O-])cc1)C(=O)c1cc(C(C)=O)c(Nc2ccccc2)s1 — outcome? 0

Assay result, entry Oc1c(C(c2ccco2)N2CCC3(CC2)OCCO3)sc2ncnn12 (stereo not given) — outcome? 0

---

target: Hexokinase HKDC1 (Homo sapiens) (UniProt Q2TB90); assay: HKDC1 hexokinase inhibitors, primary screen, biochemical, fluorescence, uHTS (AID 493160); details: recombinant HKDC1, G6PDH/diaphorase resazurin coupled fluorescence; at 20 µM; hits give high values;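 further: plate controls were DMSO wells with enzyme for no effect and DMSO wells lacking enzyme for full effect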
Screen size: about 340,000 compounds; about 540 (0.16%) were called active. The list comes from a sample in which actives are over-represented; it also holds close analogues and randomly drawn compounds.
observed_property: inhibition (%)
Write the value in % as a bare number.

Report the value of inhibition obtained on Hexokinase HKDC1 (Homo sapiens) (UniProt Q2TB90) for C=CCn1c(CCNC(=O)c2ccccc2F)nnc1SCC(=O)Nc1ccc(OC)cc1 . -6.44

Report the value of inhibition obtained on Hexokinase HKDC1 (Homo sapiens) (UniProt Q2TB90) for Nc1c(NCCc2ccccc2)c2ccccc2oc1=O . -1.28

Report the value of inhibition obtained on Hexokinase HKDC1 (Homo sapiens) (UniProt Q2TB90) for Cc1ccc(OS(=O)Nc2cccc3nccnc23)cc1 (configuration not stated) . 6.4

Report the value of inhibition obtained on Hexokinase HKDC1 (Homo sapiens) (UniProt Q2TB90) for O=C1C(Cl)=C(Oc2ccccc2)C(=O)c2ccccc21 . 65.2

Report the value of inhibition obtained on Hexokinase HKDC1 (Homo sapiens) (UniProt Q2TB90) for Cc1cc(-c2n[nH]c(=S)n2/N=C/C(Br)=C/c2ccccc2)n[nH]1 . 29.1

Report the value of inhibition obtained on Hexokinase HKDC1 (Homo sapiens) (UniProt Q2TB90) for O=C(NCc1ccc2c(c1)OCO2)c1c(O)nc2sccn2c1=O . 6.57

Report the value of inhibition obtained on Hexokinase HKDC1 (Homo sapiens) (UniProt Q2TB90) for Cc1ccc(CN2CCNC(=O)C2CC(=O)NCc2csc(C(C)C)n2)cc1 (configuration not stated) . -3.03

Report the value of inhibition obtained on Hexokinase HKDC1 (Homo sapiens) (UniProt Q2TB90) for CCCC(=O)N1CCC(CCC(=O)NC2CC2)CC1 . -4.77

Report the value of inhibition obtained on Hexokinase HKDC1 (Homo sapiens) (UniProt Q2TB90) for COC(=O)[C@H](Cc1ccccc1)NC(=O)Nc1ccc(S(N)(=O)=O)cc1 . 1.79

Report the value of inhibition obtained on Hexokinase HKDC1 (Homo sapiens) (UniProt Q2TB90) for O=C(Nc1cc(S(=O)(=O)N2CCOCC2)ccc1Cl)c1cc(=O)c2ccccc2o1 . 12.4

Report the value of inhibition obtained on Hexokinase HKDC1 (Homo sapiens) (UniProt Q2TB90) for CN1CCN(c2ccccc2NC(=O)COc2ccc(C3CCCCC3)cc2)CC1 . -0.75

Report the value of inhibition obtained on Hexokinase HKDC1 (Homo sapiens) (UniProt Q2TB90) for COc1ccc(N(CC(=O)N/N=C/c2cccs2)S(=O)(=O)c2ccc(OC)c(OC)c2)cc1 . -10.3

Report the value of inhibition obtained on Hexokinase HKDC1 (Homo sapiens) (UniProt Q2TB90) for CC(=O)N1CC(=O)N(CC(=O)Nc2ccc(Br)cc2)C1=S . -1.64

Report the value of inhibition obtained on Hexokinase HKDC1 (Homo sapiens) (UniProt Q2TB90) for Cc1ccc(S(=O)(=O)NC(=O)COc2ccccc2C)cc1 . -6.13

Report the value of inhibition obtained on Hexokinase HKDC1 (Homo sapiens) (UniProt Q2TB90) for O=C(/C=C(O)/C=C/c1ccc(O)cc1)/C=C/c1ccc(O)cc1 . 5.34

Report the value of inhibition obtained on Hexokinase HKDC1 (Homo sapiens) (UniProt Q2TB90) for S=C(Nc1cccc(Br)c1)N1CCn2cccc2C1c1cccnc1 (configuration not stated) . 4.07

Report the value of inhibition obtained on Hexokinase HKDC1 (Homo sapiens) (UniProt Q2TB90) for Cc1nnnn1/C(=C\c1ccccc1)C(=O)OCC(=O)N1CC2(C)CC1CC(C)(C)C2 (configuration not stated) . -1.75

Report the value of inhibition obtained on Hexokinase HKDC1 (Homo sapiens) (UniProt Q2TB90) for CC(C)N(Cc1nnc(-c2ccccc2Br)o1)C(=O)c1cc(Cl)nc2ccccc12 . 0.82

Report the value of inhibition obtained on Hexokinase HKDC1 (Homo sapiens) (UniProt Q2TB90) for O=c1oc2ccccc2c(=O)c2ccccc12 . -8.91

Report the value of inhibition obtained on Hexokinase HKDC1 (Homo sapiens) (UniProt Q2TB90) for COc1ccc(Cl)cc1C(=O)NNC(=O)c1nc2nc(C)cc(C)n2n1 . 0.07

Report the value of inhibition obtained on Hexokinase HKDC1 (Homo sapiens) (UniProt Q2TB90) for CC(C)(C)c1cc(CN2CCN(CCC#N)CC2)cc(C(C)(C)C)c1O . 3.39

Report the value of inhibition obtained on Hexokinase HKDC1 (Homo sapiens) (UniProt Q2TB90) for CC(=O)Nc1ccc(S(=O)(=O)N(CCc2ccccc2)CC(=O)N/N=C/c2ccc(C(=O)O)cc2)cc1 . -2.7
